# TARGET: Substance-P receptor (Homo sapiens)
# Sequence (P25103 whole entry): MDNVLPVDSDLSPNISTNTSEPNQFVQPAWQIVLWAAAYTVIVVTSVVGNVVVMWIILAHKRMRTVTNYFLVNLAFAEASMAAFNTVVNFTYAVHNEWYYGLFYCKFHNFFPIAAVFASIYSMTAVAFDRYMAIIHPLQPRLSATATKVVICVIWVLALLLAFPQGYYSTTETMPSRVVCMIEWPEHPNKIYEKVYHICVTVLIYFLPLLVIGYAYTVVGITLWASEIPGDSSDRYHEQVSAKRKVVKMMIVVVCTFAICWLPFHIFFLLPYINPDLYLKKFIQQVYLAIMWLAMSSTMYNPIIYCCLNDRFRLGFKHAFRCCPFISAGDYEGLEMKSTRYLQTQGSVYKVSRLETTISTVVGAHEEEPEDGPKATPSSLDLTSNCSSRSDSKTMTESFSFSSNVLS

>  <COMPOUND>
COc1ccc(-n2nnnc2N)cc1CN[C@H]1CCCN[C@H]1c1ccccc1

>  <TARGET>
Substance-P receptor (Homo sapiens)

>  <Ki / nM>
1

$$$$
>  <COMPOUND>
COc1ccc(-n2nnnc2C(F)(F)F)cc1CN[C@H]1CCCN[C@H]1c1ccccc1.Cl.Cl [VOFOPITANT DIHYDROCHLORIDE]

>  <TARGET>
Substance-P receptor (Homo sapiens)

>  <Ki / nM>
0.0251

$$$$
>  <COMPOUND>
CCCc1nnnn1-c1ccc(OC)c(CN[C@H]2CCCN[C@H]2c2ccccc2)c1.Cl.Cl

>  <TARGET>
Substance-P receptor (Homo sapiens)

>  <Ki / nM>
0.0398

$$$$
>  <COMPOUND>
CCc1nnnn1-c1ccc(OC)c(CN[C@H]2CCCN[C@H]2c2ccccc2)c1.Cl.Cl

>  <TARGET>
Substance-P receptor (Homo sapiens)

>  <Ki / nM>
0.0501

$$$$

====

# Tested on: Mustela putorius furo
# ASSAY_NOTES: In vivo antiemetic activity against radiation-induced emesis in ferret.
# Type: functional
Listing of entries alongside the reported ED90.
RESULT_TYPE: ED90 (mg/kg)

>  <COMPOUND>
COc1ccc(-n2nnnc2S(C)(=O)=O)cc1CN[C@H]1CCCN[C@H]1c1ccccc1.Cl.Cl

>  <UNITS_SYMBOL>
mg/kg

>  <INEQUALITY_SYMBOL>
>

>  <OBSERVED_VALUE>
1

$$$$
>  <COMPOUND>
COc1ccc(-n2nnnc2C2CC2)cc1CN[C@H]1CCCN[C@H]1c1ccccc1.Cl.Cl

>  <UNITS_SYMBOL>
mg/kg

>  <INEQUALITY_SYMBOL>
>

>  <OBSERVED_VALUE>
1

$$$$
>  <COMPOUND>
COc1ccc(-n2nnnc2C(F)(F)F)cc1CN[C@H]1CCCN[C@H]1c1ccccc1.Cl.Cl [VOFOPITANT DIHYDROCHLORIDE]

>  <UNITS_SYMBOL>
mg/kg

>  <INEQUALITY_SYMBOL>
=

>  <OBSERVED_VALUE>
0.03

$$$$
>  <COMPOUND>
CCc1nnnn1-c1ccc(OC)c(CN[C@H]2CCCN[C@H]2c2ccccc2)c1.Cl.Cl

>  <UNITS_SYMBOL>
mg/kg

>  <INEQUALITY_SYMBOL>
=

>  <OBSERVED_VALUE>
0.3

$$$$
>  <COMPOUND>
COc1ccc(-n2nnnc2C)cc1CN[C@H]1CCCN[C@H]1c1ccccc1.Cl.Cl

>  <UNITS_SYMBOL>
mg/kg

>  <INEQUALITY_SYMBOL>
=

>  <OBSERVED_VALUE>
0.15

$$$$
>  <COMPOUND>
COc1ccc(-n2nnnc2-c2ccccc2)cc1CN[C@H]1CCCN[C@H]1c1ccccc1.Cl.Cl

>  <UNITS_SYMBOL>
mg/kg

>  <INEQUALITY_SYMBOL>
>

>  <OBSERVED_VALUE>
1

$$$$
>  <COMPOUND>
COc1ccc(-n2cnnn2)cc1CN[C@H]1CCCN[C@H]1c1ccccc1.Cl.Cl

>  <UNITS_SYMBOL>
mg/kg

>  <INEQUALITY_SYMBOL>
=

>  <OBSERVED_VALUE>
0.1

$$$$
>  <COMPOUND>
COc1ccc(-n2nnnc2SC)cc1CN[C@H]1CCCN[C@H]1c1ccccc1.Cl.Cl

>  <UNITS_SYMBOL>
mg/kg

>  <INEQUALITY_SYMBOL>
=

>  <OBSERVED_VALUE>
1

$$$$
>  <COMPOUND>
CCCc1nnnn1-c1ccc(OC)c(CN[C@H]2CCCN[C@H]2c2ccccc2)c1.Cl.Cl

>  <UNITS_SYMBOL>
mg/kg

>  <INEQUALITY_SYMBOL>
>

>  <OBSERVED_VALUE>
3

$$$$
